Tested on: 677734-321-R-J1-PDC complex spheroid viability;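 also: spheroids exposed to compounds for one week; 100% = vehicle DMSO treated spheroids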
experimental-details: Anticancer human tumor 677734-321-R-J1-PDC patient-derived soft tissue sarcoma cell line growth inhibition [POLQ]
setup-conditions: second compound 0.1 µM; first compound 1 µM; stronger effect = lower value

{"compound": "CCCS(=O)(=O)Nc1ccc(F)c(C(=O)c2c[nH]c3ncc(-c4ccc(Cl)cc4)cc23)c1F + Cc1cccc(N(C)C(=O)C2C(O)CCN2c2nc(C)cc(C(F)(F)F)c2C#N)c1", "viability, T/C": "86.4%"}
{"compound": "Nc1ccn(C2OC(CO)C(O)C2(F)F)c(=O)n1 (stereo unspecified) + Cc1cccc(N(C)C(=O)C2C(O)CCN2c2nc(C)cc(C(F)(F)F)c2C#N)c1", "viability, T/C": "15.4%"}
{"compound": "C=CC(=O)N1CCN(c2nc(=O)n(-c3c(C)ccnc3C(C)C)c3nc(-c4c(O)cccc4F)c(F)cc23)C(C)C1 (stereo unspecified) + COC1C(OC(N)=O)C(O)C(Oc2ccc3c(O)c(NC(=O)c4ccc(O)c(CC=C(C)C)c4)c(=O)oc3c2C)OC1(C)C", "viability, T/C": "102%"}
{"compound": "CC1COCCN1c1cc(-c2ccnn2C)c2ccnc(-c3ccn[nH]3)c2n1 (stereo unspecified) + Nc1ccc(C#CCN(C(=O)Cc2ncc(C(F)(F)F)cc2C(F)(F)F)c2ccc(F)cc2)nn1", "viability, T/C": "9.63%"}
{"compound": "O=C(c1cc(Cc2n[nH]c(=O)c3ccccc23)ccc1F)N1CCN(C(=O)C2CC2)CC1 + COC1C(OC(N)=O)C(O)C(Oc2ccc3c(O)c(NC(=O)c4ccc(O)c(CC=C(C)C)c4)c(=O)oc3c2C)OC1(C)C", "viability, T/C": "104%"}
{"compound": "CC1COCCN1c1cc(C2(S(C)(=N)=O)CC2)nc(-c2ccnc3[nH]ccc23)n1 (stereo unspecified) + COC1C(OC(N)=O)C(O)C(Oc2ccc3c(O)c(NC(=O)c4ccc(O)c(CC=C(C)C)c4)c(=O)oc3c2C)OC1(C)C", "viability, T/C": "93%"}
{"compound": "O=c1[nH]cc(F)c(=O)[nH]1 + Cc1cccc(N(C)C(=O)C2C(O)CCN2c2nc(C)cc(C(F)(F)F)c2C#N)c1", "viability, T/C": "76.5%"}
{"compound": "C=CCn1c(=O)c2cnc(Nc3ccc(N4CCN(C)CC4)cc3)nc2n1-c1cccc(C(C)(C)O)n1 + Cc1cccc(N(C)C(=O)C2C(O)CCN2c2nc(C)cc(C(F)(F)F)c2C#N)c1", "viability, T/C": "21.7%"}
{"compound": "CC1COCCN1c1cc(-c2ccnn2C)c2ccnc(-c3ccn[nH]3)c2n1 (stereo unspecified) + COC1C(OC(N)=O)C(O)C(Oc2ccc3c(O)c(NC(=O)c4ccc(O)c(CC=C(C)C)c4)c(=O)oc3c2C)OC1(C)C", "viability, T/C": "16.6%"}
{"compound": "COc1cc(C2c3cc4c(cc3C(OC3OC5COC(C)OC5C(O)C3O)C3COC(=O)C23)OCO4)cc(OC)c1O (stereo unspecified) + Nc1ccc(C#CCN(C(=O)Cc2ncc(C(F)(F)F)cc2C(F)(F)F)c2ccc(F)cc2)nn1", "viability, T/C": "46%"}
{"compound": "CC1COCCN1c1cc(C2(O)CC3CCC(C2)O3)c2cnn(-c3ccn[nH]3)c2n1 (stereo unspecified) + Cc1cccc(N(C)C(=O)C2C(O)CCN2c2nc(C)cc(C(F)(F)F)c2C#N)c1", "viability, T/C": "22.5%"}

Cited source for all entries: PubChem BioAssay AID1963842
